src = patent US8883798B2

System: production of prostaglandin E2 (PGE2)
Assay: Production of prostaglandin E2 (PGE2) in cultures of mouse peritoneal cells stimulated with LPS (ELISA kit)
Type: cell-based, mice
Settings: Table 3A, substance 50 μmol·l^−1, 6 h
Task for the reader: assign each of the following compounds its reported Production of prostaglandins in % of the controls.

Worked examples follow.
compound	endpoint value
CCCCc1c(Cl)nc(NC=O)nc1Cl [Substance 51]	5.22 ± 2.66 % of the controls
CN(C)C=Nc1nc(Cl)c(Cc2ccccc2)c(Cl)n1 [Substance 23]	3.05 ± 1.26 % of the controls
CCCc1c(Cl)nc(N=CN(C)C)nc1Cl [Substance 15]	14.76 ± 0.52 % of the controls
CCC(C)c1c(Cl)nc(N=CN(C)C)nc1Cl (stereo not shown) [Substance 21]	8.14 ± 0.07 % of the controls

Quick one: give me Production of prostaglandins in % of the controls for each item below, same order please.
1. Cc1c(Cl)nc(NC=O)nc1Cl [Substance 48]
2. C#CCc1c(Cl)nc(NC=O)nc1Cl [Substance 58]
3. Cc1c(Cl)nc(N=CN(C)C)nc1Cl [Substance 13]
4. CCCc1c(Cl)nc(NC=O)nc1Cl [Substance 50]
5. CC(C)c1c(Cl)nc(N=CN(C)C)nc1Cl [Substance 16]
6. C#CCc1c(Cl)nc(N=CN(C)C)nc1Cl [Substance 18]

["36.31 ± 1.99 % of the controls", "12.30 ± 0.54 % of the controls", "59.98 ± 1.82 % of the controls", "14.20 ± 7.00 % of the controls", "32.10 ± 2.31 % of the controls", "78.55 ± 0.38 % of the controls"]

* * *

Tested on: production of nitric oxide (NO)
Experiment: Production of nitric oxide (NO) in cultures of mouse peritoneal cells stimulated with IFN-γ plus LPS (Griess reagent)
Format: cell-based, mice
Conditions: Table 3B; substance 50 μmol·l^−1; IFN-g plus LPS; 24 h
Kindly state Production of nitric oxide in % of the controls for each of the entries shown.

compound	endpoint value
CCCCc1c(Cl)nc(N)nc1-c1cccc2ccccc12 [Substance 142]	43.99 ± 6.06; n = 6 % of the controls
CCCCc1c(-c2ccccc2)nc(N)nc1-c1ccco1 [Substance 94]	39.73 ± 5.57; n = 6 % of the controls
CCCCc1c(-c2cccs2)nc(N)nc1-c1cc2ccccc2s1 [Substance 130]	43.43 ± 7.18; n = 10 % of the controls
CCCCc1c(-c2ccc(OC)cc2)nc(N)nc1-c1cc2ccccc2o1 [Substance 117]	89.91 ± 4.02; n = 6 % of the controls
CCCCc1c(-c2cccnc2)nc(N)nc1-c1cccnc1 [Substance 81]	50.07 ± 3.04; n = 6 % of the controls
CCCCc1c(-c2ccco2)nc(N)nc1-c1cc2ccccc2s1 [Substance 131]	49.76 ± 4.85; n = 4 % of the controls
CCCCc1c(-c2ccncc2)nc(N)nc1-c1cc2ccccc2o1 [Substance 120]	65.32 ± 3.72; n = 4 % of the controls
CCCCc1c(Cl)nc(NN)nc1Cl.Cl [Substance 146]	86.28 ± 9.01; n = 6 % of the controls

Report Production of nitric oxide in % of the controls for each item below.
1. CCCCc1c(Cl)nc(N)nc1-c1ccco1 [Substance 101]
2. CCCCc1c(-c2ccsc2)nc(N)nc1-c1ccsc1 [Substance 114]
3. CCCCc1c(-c2ccccn2)nc(N)nc1-c1cc2ccccc2s1 [Substance 127]
4. CCCCc1c(-c2ccccc2)nc(N)nc1-c1ccsc1 [Substance 107]
5. CCCCc1c(-c2ccoc2)nc(N)nc1-c1ccoc1 [Substance 105]
6. CCCCc1c(Cl)nc(NCc2ccccc2)nc1Cl [Substance 145]
7. CCCCc1c(-c2ccsc2)nc(N)nc1-c1cc2ccccc2o1 [Substance 124]
8. CCCCc1c(Cl)nc(S)nc1Cl [Substance 149]

["29.35 ± 6.38; n = 6 % of the controls", "70.51 ± 5.78; n = 4 % of the controls", "40.88 ± 6.83; n = 4 % of the controls", "69.69 ± 6.09; n = 4 % of the controls", "49.07 ± 4.67; n = 4 % of the controls", "93.01 ± 9.25; n = 6 % of the controls", "33.45 ± 13.04; n = 6 % of the controls", "24.12 ± 11.22; n = 6 % of the controls"]

Each compound below has a recorded value; state its Production of nitric oxide in % of the controls.
1. CCCCc1c(-c2ccco2)nc(N)nc1-c1cccc2ccccc12 [Substance 138]
2. CCCCc1c(Cl)nc(Sc2ccccc2)nc1Cl [Substance 148]

1. 42.92 ± 3.77; n = 4 % of the controls
2. 61.85 ± 10.25; =10 % of the controls

* * *

System: peritoneal cells of mice
Assay: Cell viability of mouse peritoneal cells (WST-1 kit)
Format: cell-based
Details: Table 3B, substance 50 μmol·l^−1, 24 h
For each entry below, report its Cell viabilities in % of the controls value.

# count of solved cases: 3
compound	target of assay	endpoint value
CCCCc1c(-c2ccsc2)nc(N)nc1-c1cccs1 [Substance 111]	peritoneal cells of mice	105.47 ± 5.51; n = 8 % of the controls
CCCCc1c(-c2cc3ccccc3o2)nc(N)nc1-c1cc2ccccc2o1 [Substance 125]	peritoneal cells of mice	76.82 ± 8.89; n = 8 % of the controls
CCCCc1c(-c2ccsc2)nc(N)nc1-c1cc2ccccc2o1 [Substance 124]	peritoneal cells of mice	94.41 ± 9.01; n = 8 % of the controls

Look up Cell viabilities in % of the controls for the entries below, preserving their order.
1. CCCCc1c(-c2ccccc2)nc(N)nc1-c1ccoc1 [Substance 102]
2. CCCCc1c(-c2cccnc2)nc(N)nc1-c1ccco1 [Substance 97]

1: 110.35 ± 5.69; n = 8 % of the controls; 2: 45.54 ± 4.96; n = 8 % of the controls

* * *

Test system: peritoneal cells of mice
Experiment: Cell viability of mouse peritoneal cells (WST-1 kit)
Type: cell-based
Conditions: Table 3B, substance 50 μmol·l^−1, 24 h
readout: Cell viabilities in % of the controls

Examples from the recorded data:
smiles input	target of assay	Cell viabilities in % of the controls
CCCCc1c(-c2ccc(F)cc2)nc(N)nc1-c1cccs1	peritoneal cells of mice	125.94 ± 4.49; n = 8 % of the controls
CCCCc1c(Cl)nc(N)nc1-c1cc2ccccc2o1	peritoneal cells of mice	102.56 ± 5.92; n = 4 % of the controls
CCCCc1c(-c2ccccc2)nc(N)nc1-c1ccsc1	peritoneal cells of mice	69.08 ± 1.78; n = 4 % of the controls
CCCCc1c(-c2ccncc2)nc(N)nc1-c1cccnc1	peritoneal cells of mice	109.54 ± 4.48; n = 8 % of the controls
CCCCc1c(Cl)nc(N)nc1-c1ccc(F)cc1	peritoneal cells of mice	94.59 ± 7.75; n = 4 % of the controls
CCCCc1c(Cl)nc(NCc2ccccc2)nc1Cl	peritoneal cells of mice	147.31 ± 4.88; n = 8 % of the controls
CCCCc1c(Cl)nc(N)nc1-c1cc2ccccc2s1	peritoneal cells of mice	84.08 ± 4.71; n = 8 % of the controls
CCCCc1c(Cl)nc(Sc2ccccc2)nc1Cl	peritoneal cells of mice	90.49 ± 4.62; n = 12 % of the controls

Here are 2 molecules. What values of Cell viabilities in % of the controls were reported for them?
1. CCCCc1c(-c2ccc(F)cc2)nc(N)nc1-c1ccc(OC)cc1
2. CCCCc1c(-c2ccc(F)cc2)nc(N)nc1-c1ccsc1

1: 130.12 ± 10.97; n = 12 % of the controls; 2: 124.71 ± 15.20; n = 4 % of the controls

* * *

For each record, write down the corresponding Cell viabilities in % of the controls.
Tested on: peritoneal cells of mice
Assay: Cell viability of mouse peritoneal cells (WST-1 kit)
Assay type: cell-based
Details: Table 3B, substance 50 μmol·l^−1, 24 h
Experimental: Cell viability was determined in the standard way using a WST-1 kit (Roche). The values of the viability of the control cells were for the purposes of comparison between experiments considered as 100%. The influence of the substances on the longevity of the cells was evaluated in percentage with respect to the control values. […] NO production was induced using IFN-g (5000 pg/mL) plus LPS (100 pg/mL); evaluated (Griess reagent) after 24 h of the cell cultivation (2×10^6/mL). […]

// below: answered molecules
smiles input	Cell viabilities in % of the controls
CCCCc1c(-c2ccncc2)nc(N)nc1-c1ccc(OC)cc1	95.41 ± 4.70; n = 8 % of the controls
CCCCc1c(Cl)nc(N)nc1-c1ccoc1	100.38 ± 5.55; n = 8 % of the controls
CCCCc1c(-c2cccs2)nc(N)nc1-c1cc2ccccc2s1	130.68 ± 8.17; n = 12 % of the controls
CCCCc1c(Cl)nc(NC2CC2)nc1Cl	104.31 ± 8.28; n = 8 % of the controls
CCCCc1c(-c2cccc3ccccc23)nc(N)nc1-c1cccc2ccccc12	107.73 ± 5.36; n = 8 % of the controls

Give measured Cell viabilities in % of the controls for every item shown.
1. CCCCc1c(-c2ccc(OC)cc2)nc(N)nc1-c1ccccn1
2. CCCCc1c(-c2ccncc2)nc(N)nc1-c1cc2ccccc2o1

100.86 ± 11.78; n = 4 % of the controls
92.51 ± 2.77; n = 4 % of the controls

Items follow; give Cell viabilities in % of the controls for each.
1. CCCCc1c(Cl)nc(NN)nc1Cl.Cl
2. CCCCc1c(-c2cccnc2)nc(N)nc1-c1cccnc1
3. CCCCc1c(-c2ccoc2)nc(N)nc1-c1ccsc1

["103.28 ± 4.62; n = 8 % of the controls", "82.21 ± 7.34; n = 8 % of the controls", "101.51 ± 12.74; n = 8 % of the controls"]
